Tested on: HIV with mutations in the HIV protease sequence
EXPERIMENTAL PROTOCOL: Phenotypic fold resistance to protease inhibitors, protease mutations 84A/84L/84C/54M/54L/54V in a background (Examples 8-13)
Type: cell-based, HIV-1
ASSAY SETUP: Table 9 #1, protease genotype WT
mean fold increase in resistance by entry:
Express it in fold; write the number only.

Guide cases for mean fold increase in resistance, answers given:
COMPOUND: CC(C)CN(C[C@@H](O)[C@H](Cc1ccccc1)NC(=O)O[C@H]1CCOC1)S(=O)(=O)c1ccc(N)cc1 [Amprenavir, amprenavir]
mean fold increase in resistance / fold: 1

COMPOUND: CC(C)c1nc(CN(C)C(=O)N[C@H](C(=O)N[C@@H](Cc2ccccc2)C[C@H](O)[C@H](Cc2ccccc2)NC(=O)OCc2cncs2)C(C)C)cs1 [Ritonavir, ritonavir]
mean fold increase in resistance / fold: 0.6

COMPOUND: CC(C)(C)NC(=O)[C@@H]1C[C@@H]2CCCC[C@@H]2CN1C[C@@H](O)[C@H](Cc1ccccc1)NC(=O)[C@H](CC(N)=O)NC(=O)c1ccc2ccccc2n1 [Saquinavir, saquinavir]
mean fold increase in resistance / fold: 0.9

COMPOUND: CC(C)(C)NC(=O)[C@@H]1CN(Cc2cccnc2)CCN1C[C@@H](O)C[C@@H](Cc1ccccc1)C(=O)N[C@H]1c2ccccc2C[C@H]1O [Indinavir, indinavir]
mean fold increase in resistance / fold: 0.9

Form field: reported mean fold increase in resistance of Cc1c(O)cccc1C(=O)N[C@@H](CSc1ccccc1)[C@H](O)CN1C[C@H]2CCCC[C@H]2C[C@H]1C(=O)NC(C)(C)C [Nelfinavir, nelfinavir]
0.7

====

Test system: HIV with mutations in the HIV protease sequence
EXPERIMENTAL PROTOCOL: Phenotypic fold resistance to protease inhibitors, protease mutations 84A/84L/84C/54M/54L/54V in a background (Examples 8-13)
Assay type: cell-based, HIV-1
ASSAY SETUP: Table 13, V048877, genotype 10I + 33F + 77I + 90M
Fold change in IC50 by entry:
Express it in fold; write the number only.

Guide cases for Fold change in IC50, answers given:
CPD SMILES: CC(C)c1nc(CN(C)C(=O)N[C@H](C(=O)N[C@@H](Cc2ccccc2)C[C@H](O)[C@H](Cc2ccccc2)NC(=O)OCc2cncs2)C(C)C)cs1
Fold change in IC50 / fold: 20.5
//
CPD SMILES: CC(C)CN(C[C@@H](O)[C@H](Cc1ccccc1)NC(=O)O[C@H]1CCOC1)S(=O)(=O)c1ccc(N)cc1
Fold change in IC50 / fold: 7.9
//
CPD SMILES: CC(C)(C)NC(=O)[C@@H]1C[C@@H]2CCCC[C@@H]2CN1C[C@@H](O)[C@H](Cc1ccccc1)NC(=O)[C@H](CC(N)=O)NC(=O)c1ccc2ccccc2n1
Fold change in IC50 / fold: 1.5

Query the reported Fold change in IC50 for HIV with mutations in the HIV protease sequence; item: CC(C)(C)NC(=O)[C@@H]1CN(Cc2cccnc2)CCN1C[C@@H](O)C[C@@H](Cc1ccccc1)C(=O)N[C@H]1c2ccccc2C[C@H]1O
2.9

Query the reported Fold change in IC50 for HIV with mutations in the HIV protease sequence; item: Cc1c(O)cccc1C(=O)N[C@@H](CSc1ccccc1)[C@H](O)CN1C[C@H]2CCCC[C@H]2C[C@H]1C(=O)NC(C)(C)C
9.4
